experiment: SAD study in healthy volunteers: PK in plasma, whole blood, red blood cells; format: in vivo, human; conditions: human; HV single oral 400 mg (Cohort 5); plasma; geometric mean
recorded endpoint: AUC(0-inf) (µg·h/mL)
Please give a number only; it is taken to be in µg·h/mL.

Field AUC(0-inf) (entry O=Cc1c(O)cccc1OC[C@@H]1COCCN1C(=O)c1cccnc1CCO ) reads 361

###

assay: SAD study in healthy volunteers: PK in plasma, whole blood, red blood cells; assay type: in vivo, human; settings: human; HV single oral 400 mg (Cohort 5); whole blood; median
recorded endpoint: Tmax
Value and unit, in that order.

Sure, the documented Tmax for O=Cc1c(O)cccc1OC[C@@H]1COCCN1C(=O)c1cccnc1CCO [Compound I] is 8 h
